# systemName: human σ2/TMEM97 receptor (Homo sapiens)
# method: Binding assay to human σ2/TMEM97 receptor ([3H]-DTG, transfected HEK-293 membranes)
# appliedConditions: class scale, read-out: Binding σ-2 Ki
pKi: −log10 of the molar value.
Entries annotated with measured pKi

Solved entries:
Cc1cc(-c2nn(C)c(Cl)c2CN2CCC(CNCCC(C)C)CC2)no1 ... 6.30 to 7.00
CCn1nc(-c2cc(C)on2)c(C(=O)NC2CCC3(CC2)CCN(CCC(C)(C)C)CC3)c1Cl ... > 7.00
Cn1nc(-c2cc(C3CC3)on2)c(CN2CCCCC(NCCC(C)(C)C)C2)c1Cl (stereo not shown) ... < 6.00

// next item, pKi requested
Record Cc1cc(-c2nn(-c3ccncc3)c(Cl)c2C(=O)N2CCC3(CCN(CCC(C)(C)C)CC3)CC2)no1 . Reported pKi: > 7.00

---

# systemName: human σ2/TMEM97 receptor (Homo sapiens, UniProt Q5BJF2)
# Sequence (Q5BJF2 whole entry): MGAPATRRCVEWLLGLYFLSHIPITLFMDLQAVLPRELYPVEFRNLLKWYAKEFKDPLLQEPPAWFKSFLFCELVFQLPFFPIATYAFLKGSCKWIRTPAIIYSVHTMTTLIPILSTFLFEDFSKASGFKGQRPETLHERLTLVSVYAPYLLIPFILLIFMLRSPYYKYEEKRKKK
# method: Binding assay to human σ2/TMEM97 receptor ([3H]-DTG, transfected HEK-293 membranes)
# appliedConditions: class scale, read-out: Binding σ-2 Ki
valueType: Ki

Briefly, Ki measured for CC(C)CCNC1CCCCN(Cc2c(-c3cc(C(C)C)on3)nn(C)c2Cl)C1 (stereo not drawn) : > 1 µM

---

# systemName: human σ2/TMEM97 receptor (Homo sapiens, UniProt Q5BJF2)
# method: Binding assay to human σ2/TMEM97 receptor ([3H]-DTG, transfected HEK-293 membranes)
# appliedConditions: class scale, read-out: Binding σ-2 Ki
valueType: Ki

// below: answered compounds
Cn1nc(-c2cccc(C(F)(F)F)n2)c(C(=O)NC2CCN(CCC(C)(C)C)CC2)c1Cl [Example 167] ... < 100 nM
Cn1nc(-c2ccccn2)c(CN2CCCCC(NCCC(C)(C)C)C2)c1Cl (stereo not shown) [Example 25] ... > 1000 nM
Cc1cc(-c2nn(C)c(Cl)c2CN2CC[C@@H](CNCCc3ccccc3)C2)no1 [Example 72] ... 100 to 500 nM
Cc1cc(-c2nn(C)c(Cl)c2CN2CCC(CN(CC(C)C)CC(C)C)C2)no1 (stereo not shown) [Example 42] ... 100 to 500 nM
CCn1cc(-c2nn(C)c(Cl)c2C(=O)NC2CC3(CCN(CCC(C)(C)C)CC3)C2)cn1 [Example 145] ... < 100 nM
CC(C)c1cc(-c2nn(C)c(Cl)c2C(=O)N2CCC3(CCN(CCC(C)(C)C)CC3)CC2)no1 [Example 177] ... < 100 nM
Cc1cc(-c2nn(C)c(Cl)c2CN2CCC[C@H](NCCc3ccccc3)C2)no1 [Example 7] ... > 1000 nM
Cc1cc(-c2nn(C)c(Cl)c2C(=O)N2CC[C@]3(C2)C[C@@H](NCCC(C)(C)C)C3)no1 [Example 123] ... < 100 nM

Lab book: Ki of Cc1cc(-c2nn(C)c(Cl)c2C(=O)N2CCC3(CCN(Cc4ccc(F)c(F)c4)CC3)CC2)no1 [Example 130] noted as 100 to 500 nM

Briefly, Ki measured for Cn1nc(-c2ccon2)c(CN2CCCCC(NCCC(C)(C)C)C2)c1Cl (stereo not shown) [Example 33] : 100 to 500 nM

---

Reported Ki, human σ1 receptor (Homo sapiens).

Below, each entry is followed by its recorded Ki result.
CCOc1cccc(-c2nn(C)c(Cl)c2C(=O)N2CCC3(CCN(CCC(C)(C)C)CC3)CC2)n1 [Example 186] ... 100 to 500 nM
CCn1nc(-c2ccon2)c(CC(=O)NC2CC3(CCN(CCC(C)(C)C)CC3)C2)c1Cl [Example 224] ... 100 to 500 nM
CCn1nc(-c2cc(C)on2)c(C(=O)N2CC3(CCN(CCC(C)(C)C)CC3)C2)c1Cl [Example 184] ... 100 to 500 nM
Cc1cc(-c2nn(C)c(Cl)c2C(=O)N2CCC[C@H](NCCC(C)C)C2)no1 [Example 109] ... > 1000 nM
CCn1nc(-c2cc(C)on2)c(C(=O)N2CCC3(CCN(CCC(C)(C)C)CC3)CC2)c1Cl [Example 99] ... 500 to 1000 nM

# Ki of Cc1cc(-c2nn(C)c(Cl)c2C(=O)NC2CC3(CCN(CC(C)(C)C)CC3)C2)no1 [Example 154] = 100 to 500 nM

Summary for this compound, Cc1cc(-c2nn(C)c(Cl)c2C(=O)N2CCCCC(NCCC(C)C)C2)no1 (stereo not shown) [Example 84] : Ki is > 1000 nM

Reference source for all entries: patent US20240239781A1
